Reported IC50 is given for each of the following compounds.
# TESTED TARGET: MeCP2_MBD binding to 5-mCpG containing DNA (Homo sapiens (Human), UniProt P51608)
# Sequence (P51608 90-162): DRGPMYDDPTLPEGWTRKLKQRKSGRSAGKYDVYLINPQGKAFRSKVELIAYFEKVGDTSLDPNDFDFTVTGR
# ASSAY SUMMARY: DNA-protein binding assay, MeCP2_MBD to methylated oligonucleotide
# SETUP CONDITIONS: His-tagged MeCP2_MBD, read-out: MeCP2 Binding Inhibition (IC50 in μM)
# Experimental: To determine if the “lead” compounds directly interfere with MBD2 binding to ^5−m CpG containing DNA, each “lead” compound is tested for its ability to inhibit such binding using a DNA-protein binding assay. […] DNA binding assays using recombinant MBDs. […] After washing four times with binding buffer and drying wells, TMB is added to each well followed by 1 N HCl, and A450 is measured on a microplate reader. […]

INSERT INTO assay_data (compound, obs_value) VALUES
  ('c1ccc(Nc2nc(-c3ccccn3)cs2)nc1', '10.5 µM'),
  ('COc1ccc(NC(=O)Nc2cccc3cccnc23)cc1', '2.81 µM'),
  ('Cn1c2ccccc2n2cc(-c3ccc([N+](=O)[O-])cc3)nc12', '> 200 µM'),
  ('Oc1cccc(Nc2nc(-c3ccccn3)cs2)c1', '> 200 µM'),
  ('Oc1ccc(C2NN=C(c3ccccc3)S2)cc1 (stereo not drawn)', '16.9 µM');

Notebook entry, MeCP2_MBD binding to 5-mCpG containing DNA (Homo sapiens (Human), UniProt P51608) assay: IC50 of COc1ccccc1-c1nc(-c2cccc([N+](=O)[O-])c2)no1 = ?
> 200 µM

Now try COc1cc(O)cc(Br)c1/C=N/Nc1nc2ccccc2s1 .
> 200 µM

Now try Oc1ccc2ccccc2c1C1NN=C(c2ccccc2)S1 (stereo not drawn) .
0.61 µM

Now try OC1(C(F)(F)F)CC(c2ccccc2)=NN1C(=S)c1ccccc1 (stereo not drawn) .
> 200 µM

Now try CCOc1ccc(Nc2nc(-c3ccccn3)cs2)cc1 .
> 200 µM

Now try Clc1ccc(C2NN=C(c3ccccc3)S2)cc1 (stereo not drawn) .
33.9 µM

Now try Nc1cccc(-c2nnc(-c3ccccc3)o2)c1 .
8.59 µM

---

# TESTED TARGET: recombinant DNMT3a (Homo sapiens (Human))
# Sequence (Q9Y6K1 whole entry, looked up): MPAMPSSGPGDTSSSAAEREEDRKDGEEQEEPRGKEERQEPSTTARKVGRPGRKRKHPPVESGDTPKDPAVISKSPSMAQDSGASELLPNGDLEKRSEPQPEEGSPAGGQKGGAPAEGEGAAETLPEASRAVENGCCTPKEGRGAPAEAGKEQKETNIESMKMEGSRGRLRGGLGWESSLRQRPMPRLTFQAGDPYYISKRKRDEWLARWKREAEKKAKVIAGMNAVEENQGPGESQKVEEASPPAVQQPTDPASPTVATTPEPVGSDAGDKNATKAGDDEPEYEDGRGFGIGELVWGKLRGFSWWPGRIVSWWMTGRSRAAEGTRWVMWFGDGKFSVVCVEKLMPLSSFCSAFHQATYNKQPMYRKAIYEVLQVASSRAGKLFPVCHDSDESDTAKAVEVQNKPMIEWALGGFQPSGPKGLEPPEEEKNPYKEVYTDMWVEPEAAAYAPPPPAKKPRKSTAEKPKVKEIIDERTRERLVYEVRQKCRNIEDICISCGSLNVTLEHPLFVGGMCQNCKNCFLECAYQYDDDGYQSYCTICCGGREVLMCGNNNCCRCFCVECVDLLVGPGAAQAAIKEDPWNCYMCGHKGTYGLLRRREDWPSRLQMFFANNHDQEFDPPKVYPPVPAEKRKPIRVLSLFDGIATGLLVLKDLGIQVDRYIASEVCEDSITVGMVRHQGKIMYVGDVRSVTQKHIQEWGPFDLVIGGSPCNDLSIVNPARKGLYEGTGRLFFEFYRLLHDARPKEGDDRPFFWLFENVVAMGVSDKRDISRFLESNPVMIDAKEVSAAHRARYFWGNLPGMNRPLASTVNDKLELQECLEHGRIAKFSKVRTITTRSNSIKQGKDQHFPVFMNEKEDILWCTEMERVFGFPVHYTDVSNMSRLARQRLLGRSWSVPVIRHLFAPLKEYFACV
# ASSAY SUMMARY: DNA methyltransferase activity assay with recombinant DNMT3a
# SETUP CONDITIONS: read-out: Ki for inhibition of DNMT3a
VALUE TYPE: pKi
Hey, just a heads up that pKi is the negative log base 10 of the concentration in molar.

Looking for the measured pKi of CCN(CC)CCNC(=O)c1ccc(N)cc1 [procainamide, reference compound] , can you help?
2.85
